tested on: human prostate (PC-3) cancer cell line; experiment: In vitro cytotoxic studies; format: cell-based; conditions: 0.2 μM; PC-3 cells; 72 h; MTT
Reported Cytotoxicity % inhibition is given for each of the following compounds.
Please respond with the number in % and leave the unit unwritten.

These solved cases illustrate the format of a correct answer.
{"entry_smiles": "O=C1C(=O)N(CC#CCN2CCN(CC#CCN3C(=O)C(=O)c4cc(Cl)ccc43)CC2)c2ccc(Cl)cc21", "assay_result": 24.4}
{"entry_smiles": "O=C1C(=O)N(CC#CCN2CCN(CC#CCN3C(=O)C(=O)c4cc(F)ccc43)CC2)c2ccc(F)cc21", "assay_result": "−0.6"}

Would you kindly look at the next entry?
input: Which measured Cytotoxicity % inhibition value corresponds to O=C1C(=O)N(CC#CCN2CCN(CC#CCN3C(=O)C(=O)c4ccccc43)CC2)c2ccccc21 ?
output: 6.5

----------
assay: In vitro cytotoxic studies; type: cell-based, human; settings: human, PC-3 prostate cancer cells
observable: cytotoxicity at 72 h, 2 µM (%)
Your answer is read as %, so omit the unit and give the number.

As a guide, the following entries are already answered.
{"molecule": "O=C1C(=O)N(CC#CCN2CCCCC2)c2ccc(Cl)cc21 [Compound 3e]", "cytotoxicity at 72 h, 2 µM, %": 10.7}
{"molecule": "O=C1C(=O)N(CC#CCN2CCCCC2)c2ccc(F)cc21 [Compound 3i]", "cytotoxicity at 72 h, 2 µM, %": -6}
{"molecule": "O=C1C(=O)N(CC#CCN2CCCC2)c2ccc(F)cc21 [Compound 3j]", "cytotoxicity at 72 h, 2 µM, %": 4.3}
{"molecule": "O=C1C(=O)N(CC#CCN2CCOCC2)c2ccc(Cl)cc21 [Compound 3g]", "cytotoxicity at 72 h, 2 µM, %": 4.3}
{"molecule": "O=C1C(=O)N(CC#CCN2CCN(c3ccnc4cc(Cl)ccc34)CC2)c2ccccc21 [Compound 7a]", "cytotoxicity at 72 h, 2 µM, %": 10.1}
{"molecule": "O=C1C(=O)N(CC#CCN2CCN(c3ccnc4cc(Cl)ccc34)CC2)c2ccc(Cl)cc21 [Compound 7c]", "cytotoxicity at 72 h, 2 µM, %": 1.2}

input: Which cytotoxicity at 72 h, 2 µM is listed for O=C1C(=O)N(CC#CCN2CCCC2)c2ccc(Cl)cc21 [Compound 3f] ?
output: 4.3

----------
Measured inhibition at 50 µM, listed per entry.
test system: Tritrichomonas foetus; assay: In vitro protozoal parasite susceptibility assay; format: cell-based; conditions: Tritrichomonas foetus, 24 h, read-out: Average % inhibition at 50 μM (Tritrichomonas foetus)
Give a bare numeral; the unit % is implied.

In the examples that follow, each entry is paired with its recorded inhibition at 50 µM.
{"entry_smiles": "O=C1C(=O)N(CC#CCN2CCN(c3ccnc4cc(Cl)ccc34)CC2)c2ccc([N+](=O)[O-])cc21", "inhibition at 50 µM [%]": 60.6}
{"entry_smiles": "CCN(CC)CC#CCN1C(=O)C(=O)c2ccccc21", "inhibition at 50 µM [%]": 22.7}

Consider now this further compound.
input: Could you tell me which inhibition at 50 µM is on file for O=C1C(=O)N(CC#CCN2CCOCC2)c2ccc(Cl)cc21 ?
output: 22.7

----------
Reported cytotoxicity at 72 h, 20 µM values for the following compounds.
experiment: In vitro cytotoxic studies; type: cell-based, human; details: human, PC-3 prostate cancer cells
# unit: % | format: bare number

Consider the reported cytotoxicity at 72 h, 20 µM for these compounds:
{"compound": "O=C1C(=O)N(CC#CCN2CCOCC2)c2ccccc21", "cytotoxicity at 72 h, 20 µM, %": 8.7}
{"compound": "O=C1C(=O)N(CC#CCN2CCOCC2)c2ccc(F)cc21", "cytotoxicity at 72 h, 20 µM, %": 3.2}
{"compound": "O=C1C(=O)N(CC#CCN2CCN(c3ccnc4cc(Cl)ccc34)CC2)c2ccc(F)cc21", "cytotoxicity at 72 h, 20 µM, %": 3}

input: Which cytotoxicity at 72 h, 20 µM is reported for this compound? O=C1C(=O)N(CC#CCN2CCCC2)c2ccc(Cl)cc21
output: 9.6

input: Same for CCN(CC)CC#CCN1C(=O)C(=O)c2ccccc21
output: 8

input: What about this compound? O=C1C(=O)N(CC#CCN2CCCC2)c2ccc(F)cc21
output: -2.7

input: O=C1C(=O)N(CC#CCN2CCN(c3ccnc4cc(Cl)ccc34)CC2)c2ccccc21 , same question.
output: -3.2

input: Next entry: O=C1C(=O)N(CC#CCN2CCOCC2)c2ccc(Cl)cc21
output: 3.4

----------
assay: In vitro cytotoxic studies; assay type: cell-based, human; settings: human, PC-3 prostate cancer cells
We begin with a simple list: items and their reported cytotoxicity at 72 h, 2 µM.
Give your result in % as a bare value.

Look over these answered cases.
{"entry_smiles": "O=C1C(=O)N(CC#CCN2CCOCC2)c2ccc(F)cc21", "cytotoxicity at 72 h, 2 µM [%]": 0.7}
{"entry_smiles": "O=C1C(=O)N(CC#CCN2CCN(c3ccnc4cc(Cl)ccc34)CC2)c2ccc([N+](=O)[O-])cc21", "cytotoxicity at 72 h, 2 µM [%]": 3.2}
{"entry_smiles": "CCN(CC)CC#CCN1C(=O)C(=O)c2ccccc21", "cytotoxicity at 72 h, 2 µM [%]": 4.6}
{"entry_smiles": "CCN(CC)CC#CCN1C(=O)C(=O)c2cc(Cl)ccc21", "cytotoxicity at 72 h, 2 µM [%]": 5.6}

input: Which measured cytotoxicity at 72 h, 2 µM value corresponds to O=C1C(=O)N(CC#CCN2CCCC2)c2ccccc21 ?
output: 7

----------
assay: In vitro cytotoxic studies; format: cell-based, human; settings: human, PC-3 prostate cancer cells
compounds and their reported cytotoxicity at 72 h, 20 µM
I only need the number, in %, no unit after it.

Look over these answered cases.
{"compound": "Cc1ccc2c(c1)C(=O)C(=O)N2CC#CCN1CCCC1", "cytotoxicity at 72 h, 20 µM [%]": 6.1}
{"compound": "Cc1ccc2c(c1)C(=O)C(=O)N2CC#CCN1CCOCC1", "cytotoxicity at 72 h, 20 µM [%]": 3.5}
{"compound": "Cc1ccc2c(c1)C(=O)C(=O)N2CC#CCN1CCN(c2ccnc3cc(Cl)ccc23)CC1", "cytotoxicity at 72 h, 20 µM [%]": 8.2}
{"compound": "CS(=O)(=O)N1CCN(Cc2cc3nc(-c4cccc5[nH]ncc45)nc(N4CCOCC4)c3s2)CC1 [GDC-0941, reference compound]", "cytotoxicity at 72 h, 20 µM [%]": 72.2}
{"compound": "CCN(CC)CC#CCN1C(=O)C(=O)c2cc(F)ccc21", "cytotoxicity at 72 h, 20 µM [%]": 7.9}
{"compound": "O=C1C(=O)N(CC#CCN2CCN(c3ccnc4cc(Cl)ccc34)CC2)c2ccc(Cl)cc21", "cytotoxicity at 72 h, 20 µM [%]": 1.4}
{"compound": "O=C1C(=O)N(CC#CCN2CCCC2)c2ccccc21", "cytotoxicity at 72 h, 20 µM [%]": 3}
{"compound": "O=C1C(=O)N(CC#CCN2CCCCC2)c2ccc(F)cc21", "cytotoxicity at 72 h, 20 µM [%]": 5.1}

Shifting focus to the compound that follows.
input: Record request: cytotoxicity at 72 h, 20 µM value, item O=C1C(=O)N(CC#CCN2CCCCC2)c2ccc(Cl)cc21
output: 18.7

Data credit: paper PMC7115568
